Test method notes: Retention time of the compound by HPLC
Assay type: physicochemical
Measurement name: Retention_time (min)

Some solved entries appear below for comparison.
COc1ccc(S(=O)(=O)N2CCc3cccc(Nc4ccc([N+](=O)[O-])cc4)c32)cc1 :: 42.28
COc1ccc(S(=O)(=O)N2CCc3cccc(Nc4ccc(C#N)cc4)c32)cc1 :: 40.79
COc1ccc(S(=O)(=O)N2CCc3cccc(Nc4ccc(F)c(F)c4)c32)cc1 :: 45.49
COc1ccc(S(=O)(=O)N2CCc3cccc(Nc4ccc(F)cc4)c32)cc1 :: 44.71
COc1ccc(Nc2cccc3c2N(S(=O)(=O)c2ccc(OC)cc2)CC3)cc1 :: 43.47
COc1ccc(S(=O)(=O)N2CCc3cccc(Nc4ccccc4)c32)cc1 :: 44.81
COc1ccc(S(=O)(=O)N2CCc3cccc(Nc4ccc(C(=O)O)cc4)c32)cc1 :: 33.94
COC(=O)c1ccc(Nc2cccc3c2N(S(=O)(=O)c2ccc(OC)cc2)CC3)cc1 :: 42.74

[a] COc1ccc(S(=O)(=O)N2CCc3cccc(Nc4ccc(Cl)cc4)c32)cc1
[b] COc1ccc(S(=O)(=O)N2CCc3cccc(Nc4ccc(O)cc4)c32)cc1
Query: Which has the smaller recorded Retention_time, a or b ? Answer format: the label of the selected item.
Reply: b

###

Test method notes: Antiproliferative activity against human MKN45 cells
Type: functional, cell-based
Run parameters: MKN-45
Measured IC50, listed per entry for reference.
Write the number in nM without appending the unit.

COc1ccc(Nc2cccc3c2N(S(=O)(=O)c2ccc(OC)cc2)CC3)cc1 :: 487
COc1ccc(S(=O)(=O)N2CCc3cccc(Nc4ccc(F)c(F)c4)c32)cc1 :: 726
COc1ccc(S(=O)(=O)N2CCc3cccc(Nc4ccc(F)cc4)c32)cc1 :: 563
COc1ccc(S(=O)(=O)N2CCc3cccc(Nc4ccc(C(=O)O)cc4)c32)cc1 :: 1390

Query: Dear colleague, I am looking for the recorded IC50 of the following molecule: `COc1ccc(S(=O)(=O)N2CCc3cccc(Nc4ccc(Cl)cc4)c32)cc1`
Reply: 463

Query: Item under review: `COc1ccc(S(=O)(=O)N2CCc3cccc(Nc4ccccc4)c32)cc1` . Reported IC50?
Reply: 187

Query: Consider the molecule `COc1ccc(S(=O)(=O)N2CCc3cccc(Nc4ccc([N+](=O)[O-])cc4)c32)cc1` and give its measured IC50.
Reply: 107

###

System: KB
Test method notes: Antiproliferative activity against human KB cells
Format: functional, cell-based
pIC50: −log10 of the molar value.
Measurement name: pIC50

In the examples that follow, each entry is paired with its recorded pIC50.
COc1ccc(S(=O)(=O)N2CCc3cccc(Nc4ccc(Cl)cc4)c32)cc1 :: 5.96
COc1ccc(S(=O)(=O)N2CCc3cccc(Nc4ccc(C#N)cc4)c32)cc1 :: 7.30
COc1ccc(S(=O)(=O)N2CCc3cccc(Nc4ccc([N+](=O)[O-])cc4)c32)cc1 :: 7.00
COC(=O)c1ccc(Nc2cccc3c2N(S(=O)(=O)c2ccc(OC)cc2)CC3)cc1 :: 7.03

[A] COc1ccc(S(=O)(=O)N2CCc3cccc(Nc4ccc(F)cc4)c32)cc1
[B] COc1ccc(S(=O)(=O)N2CCc3cccc(Nc4ccccc4)c32)cc1
Query: Returns the identifier with the smallest measured pIC50 among A and B . Your answer should be the label attached to the chosen record.
Reply: A
(A: 6.25, B: 6.47)

[A] COc1ccc(S(=O)(=O)N2CCc3cccc(Nc4ccc(F)c(F)c4)c32)cc1
[B] COc1ccc(S(=O)(=O)N2CCc3cccc(Nc4ccc(O)cc4)c32)cc1
Query: Please tell me which of the two, A or B , has the higher reported pIC50 value. Let me know the label of the one you choose.
Reply: B

###

Study system: Tubulin
Test method notes: Inhibition of tubulin (unknown origin) polymerization by spectrophotometry
Measurement name: IC50 (µM)

COC(=O)c1ccc(Nc2cccc3c2N(S(=O)(=O)c2ccc(OC)cc2)CC3)cc1 :: 4.7
COc1ccc(S(=O)(=O)N2CCc3cccc(Nc4ccc(C#N)cc4)c32)cc1 :: 3.2
COc1ccc(S(=O)(=O)N2CCc3cccc(Nc4ccc([N+](=O)[O-])cc4)c32)cc1 :: 3.7

###

Test method notes: Antiproliferative activity against human KB-7d cells
Assay type: functional, cell-based
Run parameters: KB7D
Measurement name: pIC50
In plain terms, pIC50 is the concentration in mol/L turned into minus its base-10 logarithm.

COc1ccc(S(=O)(=O)N2CCc3cccc(Nc4ccc(C#N)cc4)c32)cc1 :: 7.15
CC[C@]1(O)C[C@H]2CN(CCc3c([nH]c4ccccc34)[C@@](C(=O)OC)(c3cc4c(cc3OC)N(C=O)[C@H]3[C@@](O)(C(=O)OC)[C@H](OC(C)=O)[C@]5(CC)C=CCN6CC[C@]43[C@@H]65)C2)C1 :: 8.92
COc1cc([C@@H]2c3cc4c(cc3[C@@H](O[C@@H]3O[C@@H]5CO[C@@H](C)O[C@H]5[C@H](O)[C@H]3O)[C@H]3COC(=O)[C@H]23)OCO4)cc(OC)c1O [ETOPOSIDE] :: 4.27
CC(=O)O[C@H]1C(=O)[C@@]2(C)[C@H]([C@H](OC(=O)c3ccccc3)[C@]3(O)C[C@H](OC(=O)[C@H](O)[C@@H](NC(=O)c4ccccc4)c4ccccc4)C(C)=C1C3(C)C)[C@]1(OC(C)=O)CO[C@@H]1C[C@@H]2O :: 8.10

Query: Fill in: pIC50 of `COc1ccc(S(=O)(=O)N2CCc3cccc(Nc4ccc([N+](=O)[O-])cc4)c32)cc1` is ___
Reply: 6.94

###

Test method notes: Antiproliferative activity against human MKN45 cells
Type: functional, cell-based
Run parameters: MKN-45
Measurement name: pIC50
Scale: pIC50 equals -log10([C]), with [C] in mol/L.

Illustrative cases are given below, each with its answer.
COC(=O)c1ccc(Nc2cccc3c2N(S(=O)(=O)c2ccc(OC)cc2)CC3)cc1 :: 6.31
COc1ccc(S(=O)(=O)N2CCc3cccc(Nc4ccc(O)cc4)c32)cc1 :: 6.31

Turning to the following compound.
Query: Return reported pIC50; argument: `COc1ccc(S(=O)(=O)N2CCc3cccc(Nc4ccc(C#N)cc4)c32)cc1`
Reply: 7.04
